meta.source: PubChem BioAssay AID1963833

tested on: 883617-216-R-J1-PDC complex spheroid viability; assay: Anticancer human tumor 883617-216-R-J1-PDC patient-derived bladder carcinoma cell line growth inhibition [POLQ]; conditions: second compound 1 µM; first compound 0.316 µM; active compounds read low;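 further: spheroids exposed to compounds for seven days before readout; 100% = DMSO vehicle control viability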
Measured quantity: viability, T/C (%)
Provide the reading as a plain figure in %.

| Compound | Measured quantity | Recorded number |
| --- | --- | --- |
| C=CC(=O)N1CCN(c2nc(=O)n(-c3c(C)ccnc3C(C)C)c3nc(-c4c(O)cccc4F)c(F)cc23)C(C)C1 (stereo not given) + Nc1ccc(C#CCN(C(=O)Cc2ncc(C(F)(F)F)cc2C(F)(F)F)c2ccc(F)cc2)nn1 | viability, T/C | 71.7 |
| C=CC(=O)N1CCN(c2nc(=O)n(-c3c(C)ccnc3C(C)C)c3nc(-c4c(O)cccc4F)c(F)cc23)C(C)C1 (stereo not given) + Cc1cccc(N(C)C(=O)C2C(O)CCN2c2nc(C)cc(C(F)(F)F)c2C#N)c1 | viability, T/C | 67.3 |
| COc1cccc2c1C(=O)c1c(O)c3c(c(O)c1C2=O)CC(O)(C(=O)CO)CC3OC1CC(N)C(O)C(C)O1 (stereo not given) + Cc1cccc(N(C)C(=O)C2C(O)CCN2c2nc(C)cc(C(F)(F)F)c2C#N)c1 | viability, T/C | 55.6 |
| CC1COCCN1c1cc(C2(O)CC3CCC(C2)O3)c2cnn(-c3ccn[nH]3)c2n1 (stereo not given) + Nc1ccc(C#CCN(C(=O)Cc2ncc(C(F)(F)F)cc2C(F)(F)F)c2ccc(F)cc2)nn1 | viability, T/C | 45.1 |

--- query ---
Checklist item: viability, T/C tested on 883617-216-R-J1-PDC complex spheroid viability, entry COc1cc(C2c3cc4c(cc3C(OC3OC5COC(C)OC5C(O)C3O)C3COC(=O)C23)OCO4)cc(OC)c1O (stereo not given) + Nc1ccc(C#CCN(C(=O)Cc2ncc(C(F)(F)F)cc2C(F)(F)F)c2ccc(F)cc2)nn1 , value?;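 further: spheroids exposed to compounds for seven days before readout; 100% = DMSO vehicle control viability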
83.2
